Test system: NCI/ADR-RES ovarian
protocol-summary: NCI tumour cell line growth inhibition, 48 h
Collected TGI values appear next to each entry.
measurement-label: TGI

COc1ccc(-c2nc3cc(C(F)(F)F)ccc3n2CC2CCCN3CCCCC23)cc1 (stereo unspecified) | 27.1 µM
COc1ccc2nccc(/C=C/c3ccnc4ccc(OC)cc34)c2c1 | > 100 µM
COCn1c(C)c(C)c2c(=O)oc(C)nc21 | > 100 µM
O=S(=O)(/N=C(\NO)Nc1ccc(Cl)cc1)C1CC=C(c2ccon2)S1 (stereo unspecified) | > 100 µM
CCN(Cc1cccc(F)c1F)c1ccc(CO)c(Cl)c1 | 52.2 µM
Cc1nc2ccccc2c(=O)n1/N=C/c1ccc(N(C)C)cc1 | > 100 µM
CC(=O)OC1[C@H](n2ccnc2)C[C@H]2[C@@H]3CC=C4CC(N5CCCC5)CC[C@]4(C)[C@H]3CC[C@]12C (stereo partly specified) | > 100 µM
CC(=O)/C(=C\c1c(-c2ccccc2)[nH]c2ccccc12)S(=O)(=O)c1ccccc1 | 5.62 µM
CCOC(=O)N1N(c2ccccc2)C(=O)C1(c1ccccc1)c1ccccc1 | > 100 µM
CCOC(=O)c1cn2c(ccc3sc4ccccc4c(=O)c32)n1 | > 100 µM
NCCN1C(=O)c2ccccc2C1(O)c1ccc(Cl)cc1 (stereo unspecified) | > 100 µM
